molecular target: human F508del-CFTR (Homo sapiens, UniProt P13569, DEL508-508); assay: F508del-CFTR cell surface expression (corrector activity), DiscoveRx ß-galactosidase complementation chemiluminescence assay in recombinant U2OS cell line; details: U2OS, in relation to the Emax of the corrector lumacaftor (=100%); U2OS cell line, 16h compound incubation; arithmetic mean values;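 further: U2OS cells co-expressing ProLink-tagged F508del-CFTR and a membrane-anchored enzyme acceptor, where more surface CFTR restores β-galactosidase activity measured by chemiluminescence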
Sequence (P13569 with tags, fused parts or gaps DEL508-508): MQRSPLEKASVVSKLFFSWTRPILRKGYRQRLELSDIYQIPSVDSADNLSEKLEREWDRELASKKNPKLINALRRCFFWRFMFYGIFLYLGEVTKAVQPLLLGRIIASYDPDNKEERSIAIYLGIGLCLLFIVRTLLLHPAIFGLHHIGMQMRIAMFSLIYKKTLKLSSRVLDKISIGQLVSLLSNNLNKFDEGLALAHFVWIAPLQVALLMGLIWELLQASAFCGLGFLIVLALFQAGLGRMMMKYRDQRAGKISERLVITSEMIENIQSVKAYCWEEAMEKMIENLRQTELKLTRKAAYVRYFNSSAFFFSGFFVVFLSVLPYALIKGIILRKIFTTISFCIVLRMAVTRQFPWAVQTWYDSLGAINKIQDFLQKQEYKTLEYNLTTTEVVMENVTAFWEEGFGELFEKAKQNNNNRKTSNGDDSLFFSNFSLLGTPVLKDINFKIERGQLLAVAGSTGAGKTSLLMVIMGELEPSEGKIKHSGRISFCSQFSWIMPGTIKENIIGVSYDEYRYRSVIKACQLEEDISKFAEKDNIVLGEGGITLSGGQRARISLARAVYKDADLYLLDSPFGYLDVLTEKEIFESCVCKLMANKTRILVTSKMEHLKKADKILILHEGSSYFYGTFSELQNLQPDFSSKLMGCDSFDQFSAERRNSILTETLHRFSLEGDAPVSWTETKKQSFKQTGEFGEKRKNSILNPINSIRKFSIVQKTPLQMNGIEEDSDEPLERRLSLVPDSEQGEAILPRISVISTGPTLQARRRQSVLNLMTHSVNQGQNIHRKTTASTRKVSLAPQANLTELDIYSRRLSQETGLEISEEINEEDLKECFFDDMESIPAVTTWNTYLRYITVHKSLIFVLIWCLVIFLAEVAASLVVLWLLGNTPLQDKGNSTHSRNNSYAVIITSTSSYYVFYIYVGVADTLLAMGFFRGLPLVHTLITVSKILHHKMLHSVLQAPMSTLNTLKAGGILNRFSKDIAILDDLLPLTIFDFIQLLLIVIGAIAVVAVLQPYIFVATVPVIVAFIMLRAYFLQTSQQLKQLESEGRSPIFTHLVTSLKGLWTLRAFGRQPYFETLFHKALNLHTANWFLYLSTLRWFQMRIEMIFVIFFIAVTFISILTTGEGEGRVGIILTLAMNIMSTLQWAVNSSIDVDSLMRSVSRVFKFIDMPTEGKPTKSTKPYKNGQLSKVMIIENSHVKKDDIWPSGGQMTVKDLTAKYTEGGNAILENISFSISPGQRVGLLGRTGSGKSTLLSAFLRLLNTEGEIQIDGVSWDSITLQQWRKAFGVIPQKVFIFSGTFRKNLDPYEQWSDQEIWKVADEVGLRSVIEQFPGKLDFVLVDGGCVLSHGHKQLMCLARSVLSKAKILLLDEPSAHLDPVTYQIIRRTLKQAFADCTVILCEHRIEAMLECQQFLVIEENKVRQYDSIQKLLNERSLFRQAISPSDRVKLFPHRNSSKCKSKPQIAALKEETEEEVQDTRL
# Lookup of reported Emax keyed by entry
Number in %, nothing else.

// solved cases for Emax follow
1) CC(C)C[C@H]1C(=O)N(CCC2CCC3(CCOCC3)CO2)CC(=O)N[C@H](Cc2ccccc2)COc2ccc3ccccc3c2C(=O)N[C@H](C(=O)NCCc2ccc3c(c2)OCO3)CC(=O)N1C (stereo partly shown) [Example 334] | 232
2) COc1ccc2c(c1)C(=O)N[C@H](C(=O)NCCc1ccc3c(c1)OCO3)CC(=O)N(C)[C@@H](CC(C)C)C(=O)N(C)CC(=O)N[C@H](Cc1ccccc1)CO2 [Example 228] | 190
3) COc1cccc2c1C(=O)N[C@H](C(=O)NCCc1ccc3c(c1)OCO3)CC(=O)N(C)[C@@H](CC1CCCC1)C(=O)N(C[C@@H]1CCCCO1)CC(=O)N[C@H](Cc1ccccc1)CO2 [Example 308] | 103
4) CC(C)C[C@H]1C(=O)N2CCOC[C@@H]2C(=O)N[C@H](Cc2ccccc2)COc2ccc3ccccc3c2C(=O)N[C@H](C(=O)NCCc2cccc(-n3nccn3)c2)CC(=O)N1C [Example 41] | 215
5) CC(C)C[C@H]1C(=O)N2CCCC[C@@H]2C(=O)N[C@H](Cc2ccccc2)COc2ccc3ncn(C)c3c2C(=O)N[C@H](C(=O)NCCc2ccccc2)CC(=O)N1C (racemic) [Example 27] | 114
6) CC(C)C[C@H]1C(=O)N2CCOC[C@@H]2C(=O)N[C@H](Cc2ccccc2)COc2cnc3ccccc3c2C(=O)N[C@H](C(=O)NCCc2cccc(Cl)c2)CC(=O)N1C [Example 51] | 187

Please find the next molecule below.
Q) Give the reported Emax for this molecule. COc1cccc(CCNC(=O)[C@@H]2CC(=O)N(C)[C@@H](CC(C)C)C(=O)N(C)CC(=O)N[C@H](Cc3ccccc3)COc3ccc(Cl)cc3C(=O)N2)c1 [Example 237]
A) 128
